# tested-on: CD73 (MDA-MB-231 cells) (Homo sapiens (Human))
# Sequence (P21589 27-574): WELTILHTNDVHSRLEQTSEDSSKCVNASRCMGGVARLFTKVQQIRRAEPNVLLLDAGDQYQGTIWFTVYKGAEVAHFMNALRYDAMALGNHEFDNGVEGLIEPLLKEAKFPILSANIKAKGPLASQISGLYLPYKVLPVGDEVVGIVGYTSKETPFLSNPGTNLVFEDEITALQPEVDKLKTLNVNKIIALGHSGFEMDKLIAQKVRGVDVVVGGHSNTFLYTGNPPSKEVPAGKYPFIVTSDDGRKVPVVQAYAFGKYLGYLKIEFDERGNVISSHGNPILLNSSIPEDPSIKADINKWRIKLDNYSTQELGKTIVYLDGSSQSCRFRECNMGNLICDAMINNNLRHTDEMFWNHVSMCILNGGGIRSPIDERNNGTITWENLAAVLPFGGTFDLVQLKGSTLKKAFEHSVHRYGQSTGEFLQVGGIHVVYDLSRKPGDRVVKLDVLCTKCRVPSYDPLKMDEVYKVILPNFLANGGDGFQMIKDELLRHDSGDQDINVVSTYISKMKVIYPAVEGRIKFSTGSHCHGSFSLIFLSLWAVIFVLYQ
# assay-details: CD73 Cellular Assay
# conditions-used: 10 μM AMP working solution, 45 min at 37° C., Malachite Green readout, read-out: Cellular IC50 against CD73
metric: IC50 (nM)

Consider the worked cases shown below.
structure-notation: Cn1c(=O)n(C)c2nnc(-c3c[nH]c(=O)[nH]c3=O)cc21
metric: IC50
measured-result: 156
--
structure-notation: Cn1c(=O)n(Cc2ccccc2)c2cc(-c3c[nH]c(=O)[nH]c3=O)nnc21
metric: IC50
measured-result: 107

P: Cn1c(=O)[nH]c2nnc(-c3c[nH]c(=O)[nH]c3=O)cc21
Q: CC(C)n1c(=O)n(C)c2nnc(-c3c[nH]c(=O)[nH]c3=O)cc21
Task: P or Q : whose IC50 is greater? Field: selected label. Fill in the label of the entry you choose.
Result: P

---

# tested-on: recombinant CD73 protein (Homo sapiens (Human), UniProt P21589)
# Sequence (P21589 27-574, species assumed): as the sequence (P21589 27-574) above
# assay-details: CD73 Biochemical Assay
# conditions-used: 0.2 nM recombinant CD73, 10 μM AMP working solution, Malachite Green readout; read-out: Enzymatic IC50 against CD73
metric: IC50 (µM)

compound: Cn1c(=O)n(C)c2nnc(-c3c[nH]c(=O)[nH]c3=O)cc21 [Example 2]
measured-result: 0.254

1: CC(C)n1c(=O)n(C)c2nnc(-c3c[nH]c(=O)[nH]c3=O)cc21 [Example 3]
2: Cn1c(=O)[nH]c2nnc(-c3c[nH]c(=O)[nH]c3=O)cc21 [Example 1]
Task: Short answer wanted: higher IC50, 1 or 2 ? Reply with the label of the item you choose.
Result: 2
(2: 0.622 µM, 1: 0.267 µM)

Data provenance is patent US20260001884A1.
